Experiment: Plasma half-life in dog after peroral administration was evaluated
Type: ADME, organism-based, Canis lupus familiaris
Conditions: plasma, po
Give half-life for every item shown.
Report as a plain number; the unit h is understood.

Reported half-life for "Cc1ccnc(CNC(=O)Cn2c(Cl)cnc(NCC(F)(F)c3ccccn3)c2=O)c1F" was 3.2

Reported half-life for "Cc1cnc(NCC(F)(F)c2ccccc2)c(=O)n1CC(=O)NCc1ncccc1F" was 2

Reported half-life for "Cc1ccnc(CNC(=O)Cn2c(C)cnc(NCC(F)(F)c3ccccc3)c2=O)c1F" was 0.7

Reported half-life for "Cc1ccnc(CNC(=O)Cn2c(C#N)cnc(NCC(F)(F)c3ccccn3)c2=O)c1F" was 2.4

Reported half-life for "COc1cccnc1CNC(=O)Cn1c(Cl)cnc(NCC(F)(F)c2ccccn2)c1=O" was 2.3

Reported half-life for "COc1ccnc(CNC(=O)Cn2c(Cl)cnc(NCC(F)(F)c3ccccn3)c2=O)c1" was 2

Reported half-life for "Cc1ccnc(CNC(=O)Cn2c(C)cnc(NCC(F)(F)c3ccccn3)c2=O)c1" was 2.4

Reported half-life for "N#Cc1cnc(NCC(F)(F)c2ccccn2)c(=O)n1CC(=O)NCc1ncccc1F" was 9.7

Reported half-life for "Cc1cnc(NCC(F)(F)c2ccccn2)c(=O)n1CC(=O)NCc1ncccc1F" was 3.5

Reported half-life for "Cc1ccnc(CNC(=O)Cn2c(C)cnc(NCC(F)(F)c3ccccn3)c2=O)c1F" was 1

Reported half-life for "O=C(Cn1c(Cl)cnc(NCC(F)(F)c2ccccn2)c1=O)NCc1ncccc1Cl" was 5.7

Reported half-life for "Cc1ccnc(CNC(=O)Cn2c(Cl)cnc(NCC(F)(F)c3ccccn3)c2=O)c1" was 2.1

###

Assay: Oral bioavailability in rat (dose 10 mg/kg)
Format: ADME, organism-based
Conditions: in vivo
readout.name: bioavailability (%)
Report as a plain number; the unit % is understood.

Reported bioavailability for "Cc1cnc(NCC(F)(F)c2ccccn2)c(=O)n1CC(=O)NCc1ncccc1F" was 55

Reported bioavailability for "O=C(Cn1c(Cl)cnc(NCC(F)(F)c2ccccn2)c1=O)NCc1ncccc1F" was 23

###

Assay: Maximum plasma concentration in rat after peroral administration of 10 mg/kg dose of compound
Format: ADME, organism-based
Set-up: dose 10 mg/kg, route oral
Settings: po
readout.name: Cmax (nM)
Report as a plain number; the unit nM is understood.

Reported Cmax for O=C(Cn1c(Cl)cnc(NCC(F)(F)c2ccccn2)c1=O)NCc1ncccc1F [DPOC-4088] was 1060

Reported Cmax for "Cc1cnc(NCC(F)(F)c2ccccn2)c(=O)n1CC(=O)NCc1ncccc1F" was 2160

###

Assay: Maximum plasma concentration in rhesus monkey after peroral administration of 5 mg/kg dose of compound
Assay type: ADME, organism-based, Macaca mulatta
Design: dose 5 mg/kg, route oral
Conditions: po
readout.name: Cmax (nM)
Report as a plain number; the unit nM is understood.

Reported Cmax for "O=C(Cn1c(Cl)cnc(NCC(F)(F)c2ccccn2)c1=O)NCc1ncccc1F" was 310

Reported Cmax for "Cc1cnc(NCC(F)(F)c2ccccn2)c(=O)n1CC(=O)NCc1ncccc1F" was 1100

###

Test: Maximum plasma concentration in dog after administration of 1 mg/kg dose of compound
Format: ADME, organism-based, Canis lupus familiaris
Set-up: dose 1 mg/kg
readout.name: Cmax (nM)
Report as a plain number; the unit nM is understood.

Reported Cmax for "O=C(Cn1c(Cl)cnc(NCC(F)(F)c2ccccn2)c1=O)NCc1ncccc1F" was 1380

Reported Cmax for "Cc1ccnc(CNC(=O)Cn2c(C#N)cnc(NCC(F)(F)c3ccccn3)c2=O)c1F" was 1700

Reported Cmax for "Cc1ccnc(CNC(=O)Cn2c(C)cnc(NCC(F)(F)c3ccccc3)c2=O)c1F" was 1830

Reported Cmax for "Cc1cnc(NCC(F)(F)c2ccccc2)c(=O)n1CC(=O)NCc1ncccc1F" was 3730

Reported Cmax for "Cc1ccnc(CNC(=O)Cn2c(C)cnc(NCC(F)(F)c3ccccn3)c2=O)c1" was 4120

Reported Cmax for "O=C(Cn1c(Cl)cnc(NCC(F)(F)c2ccccn2)c1=O)NCc1ncccc1Cl" was 62

Reported Cmax for "Cc1cnc(NCC(F)(F)c2ccccn2)c(=O)n1CC(=O)NCc1ncccc1F" was 5640

Reported Cmax for "Cc1ccnc(CNC(=O)Cn2c(Cl)cnc(NCC(F)(F)c3ccccn3)c2=O)c1F" was 670

Reported Cmax for "Cc1ccnc(CNC(=O)Cn2c(Cl)cnc(NCC(F)(F)c3ccccn3)c2=O)c1" was 2320

Reported Cmax for "COc1cccnc1CNC(=O)Cn1c(Cl)cnc(NCC(F)(F)c2ccccn2)c1=O" was 900

Reported Cmax for "N#Cc1cnc(NCC(F)(F)c2ccccn2)c(=O)n1CC(=O)NCc1ncccc1F" was 1170

Source of measurements: ChEMBL document CHEMBL1145961
